- Tested System: human topo IIα ATPase domain (Homo sapiens)
- Sequence (P11388 1-453): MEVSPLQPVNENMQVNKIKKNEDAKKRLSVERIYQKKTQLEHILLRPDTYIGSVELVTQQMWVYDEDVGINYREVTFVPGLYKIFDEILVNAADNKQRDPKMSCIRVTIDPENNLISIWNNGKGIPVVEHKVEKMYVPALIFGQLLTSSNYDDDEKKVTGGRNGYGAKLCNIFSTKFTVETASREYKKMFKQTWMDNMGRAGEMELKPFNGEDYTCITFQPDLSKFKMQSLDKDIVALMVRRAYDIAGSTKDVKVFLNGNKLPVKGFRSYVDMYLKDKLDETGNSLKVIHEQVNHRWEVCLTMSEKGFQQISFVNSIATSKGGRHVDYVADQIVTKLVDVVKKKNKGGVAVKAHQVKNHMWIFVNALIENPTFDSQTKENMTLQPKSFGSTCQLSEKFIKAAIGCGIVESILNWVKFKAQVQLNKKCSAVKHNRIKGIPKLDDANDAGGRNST
Endpoint: Kd (µM)
State just the number; it will be interpreted in µM.

For record Cc1nc(N)sc1-c1csc(Nc2ccc(C(F)(F)F)cc2)n1 [Compound 1] the listed Kd is 50.6

----------
- System: MCF-7 cells
- Protocol Description: MTS cytotoxicity assay, MCF-7
- Type: cell-based, human
- Measurement Setup: Homo sapiens, MCF7; 72h exposure; interval in brackets; read-out: EC50 [µM] MCF-7 (72h)
- Description: We determined the cytotoxicity of the tested compounds on human breast cancer MCF-7 and human hepatocellular carcinoma HepG2 cancer cell lines using MTS assay. […] In vitro cytotoxicity of investigated compounds was evaluated in two human cancer cell lines: the breast cancer HepG2 and hepatocellular carcinoma MCF7-7 cell lines. […] After the exposure to the tested compounds the viability of HepG2 and MCF-7 cells was determined by MTS tetrazolium reduction assay. […]
Endpoint: log10(EC50) (log10 of the value in µM)
Hey, these are logged values: log10 of EC50, µM being the unit before logging.

// known answers, use as guide
Compound | log10(EC50)
CC(=O)Nc1nc(C)c(-c2csc(Nc3ccccc3)n2)s1 | 0.88
COc1cc([C@@H]2c3cc4c(cc3[C@@H](O[C@@H]3O[C@@H]5CO[C@@H](C)O[C@H]5[C@H](O)[C@H]3O)[C@H]3COC(=O)[C@H]23)OCO4)cc(OC)c1O [Etoposide, etoposide, reference compound] | 1.10
COc1ccc(Nc2nc(-c3sc(NC(C)=O)nc3C)cs2)cc1 | 0.65
Cc1nc(N)sc1-c1csc(Nc2ccc(C(F)(F)F)cc2)n1 | 1.77
CC(=O)Nc1ccc(Nc2nc(-c3sc(NC(C)=O)nc3C)cs2)cc1 | 1.14

Turning to the following compound.
Per the record, CC(=O)Nc1nc(C)c(-c2csc(Nc3cccc(O)c3)n2)s1 has log10(EC50) of 0.82
